biological target: PI3Kβ (Homo sapiens, UniProt P42338); construct: N-terminal His6-tagged recombinant full-length human p110β; His6 (N); purchased Millipore 14-603; host or cells: baculovirus infected Sf21 insect cells; test: PI3Kβ kinase assay (HTRF based PI3K inhibition assay); format: biochemical; conditions: 0.93 μM compound; read-out: PI3K beta average % Inhibition at 0.93 μM
Sequence (P42338 whole entry): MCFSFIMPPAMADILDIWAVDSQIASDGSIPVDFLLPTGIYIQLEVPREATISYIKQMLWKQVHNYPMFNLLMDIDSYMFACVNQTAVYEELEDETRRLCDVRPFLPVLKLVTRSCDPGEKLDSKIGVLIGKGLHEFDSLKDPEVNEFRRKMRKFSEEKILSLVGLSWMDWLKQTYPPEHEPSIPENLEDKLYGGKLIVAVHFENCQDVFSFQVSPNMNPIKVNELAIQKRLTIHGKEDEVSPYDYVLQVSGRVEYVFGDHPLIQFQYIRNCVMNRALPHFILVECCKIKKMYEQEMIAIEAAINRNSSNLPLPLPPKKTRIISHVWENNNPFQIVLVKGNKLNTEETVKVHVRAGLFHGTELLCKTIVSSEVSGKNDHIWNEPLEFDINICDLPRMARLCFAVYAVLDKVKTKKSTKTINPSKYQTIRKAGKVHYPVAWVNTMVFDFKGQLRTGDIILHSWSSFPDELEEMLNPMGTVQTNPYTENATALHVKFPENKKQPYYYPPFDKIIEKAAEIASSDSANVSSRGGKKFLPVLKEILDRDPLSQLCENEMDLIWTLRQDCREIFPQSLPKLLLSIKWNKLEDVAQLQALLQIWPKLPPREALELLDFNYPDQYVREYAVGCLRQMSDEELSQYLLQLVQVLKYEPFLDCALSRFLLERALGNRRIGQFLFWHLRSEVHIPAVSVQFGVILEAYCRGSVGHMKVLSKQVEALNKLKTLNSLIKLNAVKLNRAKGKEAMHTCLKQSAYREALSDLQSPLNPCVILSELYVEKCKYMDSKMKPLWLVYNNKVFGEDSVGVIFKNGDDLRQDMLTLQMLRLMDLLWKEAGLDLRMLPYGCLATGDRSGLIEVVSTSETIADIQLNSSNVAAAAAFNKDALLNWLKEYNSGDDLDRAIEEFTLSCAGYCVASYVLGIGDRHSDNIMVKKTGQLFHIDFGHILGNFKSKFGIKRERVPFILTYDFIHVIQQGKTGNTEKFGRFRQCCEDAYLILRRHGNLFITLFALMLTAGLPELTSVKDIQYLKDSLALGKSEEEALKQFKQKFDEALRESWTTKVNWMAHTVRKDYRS
Sequence (P27986 whole entry partner): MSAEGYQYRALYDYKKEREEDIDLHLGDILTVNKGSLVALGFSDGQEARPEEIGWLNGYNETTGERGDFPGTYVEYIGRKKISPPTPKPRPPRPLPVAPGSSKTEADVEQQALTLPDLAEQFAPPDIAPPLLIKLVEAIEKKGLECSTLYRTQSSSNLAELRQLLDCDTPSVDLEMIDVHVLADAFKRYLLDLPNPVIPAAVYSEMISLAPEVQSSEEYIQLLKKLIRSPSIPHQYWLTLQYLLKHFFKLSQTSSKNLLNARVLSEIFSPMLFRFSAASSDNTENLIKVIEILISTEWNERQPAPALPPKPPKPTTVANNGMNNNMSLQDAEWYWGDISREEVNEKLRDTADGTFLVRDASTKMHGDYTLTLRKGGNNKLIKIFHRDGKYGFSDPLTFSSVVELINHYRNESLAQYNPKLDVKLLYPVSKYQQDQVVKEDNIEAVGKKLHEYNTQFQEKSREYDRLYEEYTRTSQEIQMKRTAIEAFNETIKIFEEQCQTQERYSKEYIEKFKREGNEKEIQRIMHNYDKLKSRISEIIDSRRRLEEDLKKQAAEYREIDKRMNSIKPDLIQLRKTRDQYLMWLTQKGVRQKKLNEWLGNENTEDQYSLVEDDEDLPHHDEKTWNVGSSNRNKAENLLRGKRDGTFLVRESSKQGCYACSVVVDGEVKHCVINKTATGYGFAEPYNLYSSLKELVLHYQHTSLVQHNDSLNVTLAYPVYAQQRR
measured.quantity: inhibition at 0.93 µM (%)
Give the quantity in %, number only.

// inhibition at 0.93 µM value for COc1c(OC[C@](C)(O)CN2C[C@@H](C)O[C@@H](C)C2)ccc2c1N=C(NC(=O)c1cccnc1)N1CCN=C21 (relative stereo) : 81.6

Looking up C[C@@H]1CN(C[C@@H](O)COc2ccc3c(c2OCCc2ccc(F)cc2)N=C(NC(=O)c2cccnc2)N2CCN=C32)C[C@H](C)O1 , I see its inhibition at 0.93 µM listed as 96.7

Form: compound = C[C@@H]1CN(C[C@@](C)(O)COc2ccc3c(c2OCCc2ccc(F)cc2)N=C(NC(=O)c2cnc(N)nc2)N2CCN=C32)C[C@H](C)O1 (relative stereo) ; inhibition at 0.93 µM = 95.3

Consider C[C@@H]1CN(C[C@@](C)(O)COc2ccc3c(c2OCCc2ccc(F)cc2)N=C(NC(=O)c2cccnc2)N2CCN=C32)C[C@H](C)O1 (relative stereo) . Its measured inhibition at 0.93 µM is 100

Looking up CC(C)N(C[C@@H](O)COc1ccc2c(c1OCCc1ccc(F)cc1)N=C(NC(=O)c1cccnc1)N1CCN=C21)C(C)C , I see its inhibition at 0.93 µM listed as 90

Entry COc1c(OC[C@H](O)CN2CCOCC2)ccc2c1N=C(NC(=O)c1cccnc1)N1CCN=C21 ; inhibition at 0.93 µM = 94.4

According to the records, this compound O=C(NC1=Nc2c(ccc(OCC(O)CN3CCOCC3)c2OCCc2ccc(F)cc2)C2=NCCN12)c1cccnc1 (stereo not shown) displays inhibition at 0.93 µM of 102
